- measured.target: Human complement Factor D, mature (human, UniProt P00746 27-253)
- Sequence (P00746 27-253): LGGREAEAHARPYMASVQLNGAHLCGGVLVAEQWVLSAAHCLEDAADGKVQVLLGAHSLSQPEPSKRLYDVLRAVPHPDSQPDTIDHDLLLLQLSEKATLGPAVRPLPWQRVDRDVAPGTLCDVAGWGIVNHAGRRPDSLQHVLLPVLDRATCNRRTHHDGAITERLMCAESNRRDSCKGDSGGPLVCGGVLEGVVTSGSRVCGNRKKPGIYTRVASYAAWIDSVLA
- experimental.details: cell-based or functional assay
measure: IC50, TR-FRET assay of Factor D (50 pM) cleavage of factor B
Enter your answer as a number in pM; do not include the unit.

As a guide, the following entries are already answered.
hu20D12.v2.3 Fab (Fab, V domains shown) VH: EVQLVQSGAEVKKPGASVKVSCKASGYTFTSYYMYWVRQAPGQGLEWIGEINPYSGDTNFNEKFKSRATLTVDTSTSTAYLELSSLRSEDTAVYYCAREGGFAYWGQGTLVTVSS VL: DIQMTQSPSSLSASVGDRVTITCKASQNVDTDVAWFQQKPGKAPKGLIRSASSRYSGVPSRFSGSGSGTDFTLTISSLQPEDFATYYCQQYNNYPLTFGQGTKVEIKR = 31
hu20D12.v2.1 Fab (Fab, V domains shown) VH: EVQLVQSGAEVKKPGASVKVSCKASGYTFTSYYMYWVRQAPGQGLEWIGEINPTSGGTNFNEKFKSRATLTVDTSTSTAYLELSSLRSEDTAVYYCAREGGFAYWGQGTLVTVSS VL: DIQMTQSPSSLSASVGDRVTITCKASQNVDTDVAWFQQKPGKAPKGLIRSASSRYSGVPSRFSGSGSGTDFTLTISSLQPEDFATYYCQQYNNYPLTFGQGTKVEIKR = 32
AFD.v14 Fab (Fab, V domains shown, Variant of lampalizumab; also called SIESD.N103S) VH: EVQLVQSGPELKKPGASVKVSCKASGYTFTNYGMNWVRQAPGQGLEWMGWINTYTGETTYAEDFKGRFVFSLDTSVSTAYLQISSLKAEDTAVYYCEREGGVSNWGQGTLVTVSS VL: DIQVTQSPSSLSASVGDRVTITCITSTSIESDMNWYQQKPGKVPKLLISGGNTLRPGVPSRFSGSGSGTDFTLTISSLQPEDVATYYCLQSDSLPYTFGQGTKVEIKR = 26

Next:
Ask: Given hu20D12.v2.1.C+TP-Oct (Fab, V domains shown, C-terminal Cys (Cys-226, EU numbering) linked through maleimide to a 40K eight-armed PEG with tripentaerythritol (TP) core) VH: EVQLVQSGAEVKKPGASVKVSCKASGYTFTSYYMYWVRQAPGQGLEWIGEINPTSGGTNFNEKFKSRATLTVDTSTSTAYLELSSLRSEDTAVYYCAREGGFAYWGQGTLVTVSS VL: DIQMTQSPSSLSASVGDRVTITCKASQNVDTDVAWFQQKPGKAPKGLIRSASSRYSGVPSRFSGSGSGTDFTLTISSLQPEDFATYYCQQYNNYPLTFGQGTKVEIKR , state its recorded IC50, TR-FRET assay of Factor D (50 pM) cleavage of factor B.
Reply: 31

Recorded values, source patent US20170145112A1.
